This collection of values is drawn from patent US20240239792A1.

Measured IC50, listed per entry for reference.
# TGT: BCL-XL (Homo sapiens, UniProt Q07817)
# Sequence (Q07817 whole entry): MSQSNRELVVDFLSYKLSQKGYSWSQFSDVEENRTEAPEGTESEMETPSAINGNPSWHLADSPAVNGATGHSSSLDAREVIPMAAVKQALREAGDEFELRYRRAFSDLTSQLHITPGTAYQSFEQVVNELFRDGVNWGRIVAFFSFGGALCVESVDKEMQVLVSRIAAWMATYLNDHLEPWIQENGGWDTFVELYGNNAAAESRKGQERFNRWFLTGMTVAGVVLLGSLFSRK
# EXPERIMENT_DESCRIPTION: HTRF BCL-XL/BAK assay (Cisbio)
# MEASUREMENT_CONTEXT: recombinant human Tag1-BCL-XL 2 nM, Tag2-BAK 5 nM
# Method: Then the pre-mixed anti-Tag1-Eu^3+ and anti-tag2-XL665 were added to the plate and further incubated at room temperature for another 2 hours. The signals ([…]) were read on Envision 2104 instrument. The IC50 for each compound was derived from fitting the signal of 665/615 nM to the increasing compound concentration. Using the above assays, the following compounds were tested.

Example cases with answers are listed next.
O=C(NS(=O)(=O)c1ccc(NCC2(O)CCN(C3COC3)CC2)c([N+](=O)[O-])c1)c1ccc(N2CCN([C@@H]3CCCCc4c(Cl)cc(F)cc43)CC2)cc1Oc1cnc2[nH]ccc2c1 [Compound 88] : < 20 nM
CC(C)c1cccc2c1CCCCC2N1CCN(c2ccc(C(=O)NS(=O)(=O)c3ccc(NCC4CCOCC4)c([N+](=O)[O-])c3)c(Oc3cnc4[nH]ccc4c3)c2)CC1 (centres unmarked) [Compound 51] : 200 to 2000 nM

// query Item O=C(NS(=O)(=O)c1ccc(NCC2CCOCC2)c([N+](=O)[O-])c1)c1ccc(N2CCN(C3CCCCc4c(-c5cn[nH]c5)cccc43)CC2)cc1Oc1cnc2[nH]ccc2c1 (centres unmarked) [Compound 52] : provide IC50
// result > 2000 nM

// query Item O=C(NS(=O)(=O)c1ccc(NCC2CCOCC2)c([N+](=O)[O-])c1)c1ccc(N2CCN(C3CCCCc4ccc([N+](=O)[O-])cc43)CC2)cc1Oc1cnc2[nH]ccc2c1 (centres unmarked) [Compound 30] : provide IC50
// result 200 to 2000 nM

// query Item O=C(NS(=O)(=O)c1ccc(NCC2CC3(COC3)C2)c([N+](=O)[O-])c1)c1ccc(N2CCN([C@@H]3CCCCc4c(Br)cccc43)CC2)cc1Oc1cnc2[nH]ccc2c1 [Compound 77] : provide IC50
// result 20 to 200 nM

====

# TGT: BCL-2 (Homo sapiens, UniProt P10415)
# Sequence (P10415 whole entry): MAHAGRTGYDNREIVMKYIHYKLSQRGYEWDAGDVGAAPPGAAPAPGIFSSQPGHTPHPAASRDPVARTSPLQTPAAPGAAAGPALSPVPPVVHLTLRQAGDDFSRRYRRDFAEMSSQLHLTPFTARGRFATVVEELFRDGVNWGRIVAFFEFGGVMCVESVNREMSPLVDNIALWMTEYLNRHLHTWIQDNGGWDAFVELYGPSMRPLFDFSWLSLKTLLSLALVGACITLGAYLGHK
# EXPERIMENT_DESCRIPTION: HTRF BCL-2/BAK assay (Cisbio)
# MEASUREMENT_CONTEXT: recombinant human Tag1-BCL-2 2 nM, Tag2-BAK 10 nM
pIC50: −log10 of the molar value.
Measured pIC50, listed per entry for reference.

Example cases with answers are listed next.
CCN1CCC2(CC1)CC(CNc1ccc(S(=O)(=O)NC(=O)c3ccc(N4CCN([C@@H]5CCCCc6c(Cl)cccc65)CC4)cc3Oc3cnc4[nH]ccc4c3)cc1[N+](=O)[O-])C2 : > 7.70
O=C(NS(=O)(=O)c1ccc(NCC2CCn3ccnc3C2)c([N+](=O)[O-])c1)c1ccc(N2CCN(C3CCCCc4c(Cl)cccc43)CC2)cc1Oc1cnc2[nH]ccc2c1 (centres unmarked) : > 7.70
O=C(NS(=O)(=O)c1ccc(NCCN2CCC3(CC2)COC3)c([N+](=O)[O-])c1)c1ccc(N2CCN(C3CCCCc4c(Cl)cccc43)CC2)cc1Oc1cnc2[nH]ccc2c1 (centres unmarked) : > 7.70
CCP(=O)(CC)c1cccc2c1CCCCC2N1CCN(c2ccc(C(=O)NS(=O)(=O)c3ccc(NCC4CCOCC4)c([N+](=O)[O-])c3)c(Oc3cnc4[nH]ccc4c3)c2)CC1 (centres unmarked) : 6.70 to 7.70

Please examine the following record next.
// query Answer with pIC50 of CC(C)(C)OC(=O)N1CC2CC1CC2CNc1ccc(S(=O)(=O)NC(=O)c2ccc(N3CCN([C@@H]4CCCCc5c(Cl)cccc54)CC3)cc2Oc2cnc3[nH]ccc3c2)cc1[N+](=O)[O-] (some centres unmarked) measured for BCL-2 (Homo sapiens, UniProt P10415).
// result > 7.70

====

# TGT: BCL-XL (Homo sapiens)
# EXPERIMENT_DESCRIPTION: HTRF BCL-XL/BAK assay (Cisbio)
# MEASUREMENT_CONTEXT: recombinant human Tag1-BCL-XL 2 nM, Tag2-BAK 5 nM
Measured IC50, listed per entry for reference.

O=C(NS(=O)(=O)c1ccc(NCCN2CCC3(CC2)COC3)c([N+](=O)[O-])c1)c1ccc(N2CCN(C3CCCCc4c(Cl)cccc43)CC2)cc1Oc1cnc2[nH]ccc2c1 (stereo not shown) [Compound 42] : < 20 nM

// query Item O=C(NS(=O)(=O)c1ccc(NC[C@@H]2CO[C@@H]3OCC[C@H]23)c([N+](=O)[O-])c1)c1ccc(N2CCN([C@@H]3CCCCc4c(Br)cc(F)cc43)CC2)cc1Oc1cnc2[nH]ccc2c1 (relative stereo) [Compound 81] : provide IC50
// result 200 to 2000 nM

// query Item O=C(NS(=O)(=O)c1ccc(NCC2CCC3(CC2)COC3)c([N+](=O)[O-])c1)c1ccc(N2CCN([C@@H]3CCCCc4c(Cl)cccc43)CC2)cc1Oc1cnc2[nH]ccc2c1 [Compound 71] : provide IC50
// result 20 to 200 nM

====

# TGT: BCL-2 (Homo sapiens)
# EXPERIMENT_DESCRIPTION: HTRF BCL-2/BAK assay (Cisbio)
# MEASUREMENT_CONTEXT: recombinant human Tag1-BCL-2 2 nM, Tag2-BAK 10 nM
PROPERTY: IC50

Example cases with answers are listed next.
CN1CC2CC1CC2CNc1ccc(S(=O)(=O)NC(=O)c2ccc(N3CCN(C4CCCCc5c(Cl)cccc54)CC3)cc2Oc2cnc3[nH]ccc3c2)cc1[N+](=O)[O-] (centres unmarked) : < 20 nM
O=C(NS(=O)(=O)c1cccc([N+](=O)[O-])c1)c1ccc(N2CCN(C3CCCCc4ccccc43)CC2)cc1Oc1cnc2[nH]ccc2c1 (centres unmarked) : 20 to 200 nM
CN1CC2CC1CN2CCNc1ccc(S(=O)(=O)NC(=O)c2ccc(N3CCN(C4CCCCc5c(Cl)cccc54)CC3)cc2Oc2cnc3[nH]ccc3c2)cc1[N+](=O)[O-] (centres unmarked) : < 20 nM
O=C(NS(=O)(=O)c1cccc([N+](=O)[O-])c1)c1ccc(N2CCN(C3CCc4ccccc43)CC2)cc1Oc1cnc2[nH]ccc2c1 (centres unmarked) : 200 to 2000 nM

// query Item O=C(NS(=O)(=O)c1ccc(NCC2CC3(CCCCC3)C2)c([N+](=O)[O-])c1)c1ccc(N2CCN([C@@H]3CCCCc4c(Cl)cccc43)CC2)cc1Oc1cnc2[nH]ccc2c1 : provide IC50
// result < 20 nM

====

# TGT: BCL-2 (Homo sapiens)
# EXPERIMENT_DESCRIPTION: HTRF BCL-2/BAK assay (Cisbio)
# MEASUREMENT_CONTEXT: recombinant human Tag1-BCL-2 2 nM, Tag2-BAK 10 nM
Measured IC50, listed per entry for reference.

O=C(NS(=O)(=O)c1ccc(NCC2CC3CC2CN3)c([N+](=O)[O-])c1)c1ccc(N2CCN([C@@H]3CCCCc4c(Cl)cccc43)CC2)cc1Oc1cnc2[nH]ccc2c1 (some centres unmarked) : < 20 nM

// query Item CC1(C)COCCC1CNc1ccc(S(=O)(=O)NC(=O)c2ccc(N3CCN([C@@H]4CCCCc5c(Cl)cccc54)CC3)cc2Oc2cnc3[nH]ccc3c2)cc1[N+](=O)[O-] (some centres unmarked) : provide IC50
// result < 20 nM

// query Item O=C(NS(=O)(=O)c1ccc(NCC2CCOCC2)c([N+](=O)[O-])c1)c1ccc(N2CCN(C3CCc4ccccc43)CC2)cc1Oc1cnc2[nH]ccc2c1 (centres unmarked) : provide IC50
// result 20 to 200 nM

// query Item CN1CCC(CNc2ccc(S(=O)(=O)NC(=O)c3ccc(N4CCN([C@@H]5CCCCc6c(Cl)cc(F)cc65)CC4)cc3Oc3cnc4[nH]ccc4c3)cc2[N+](=O)[O-])CC1 : provide IC50
// result < 20 nM

// query Item O=C(NS(=O)(=O)c1ccc(NCC2CC3(COC3)C2)c([N+](=O)[O-])c1)c1ccc(N2CCN([C@@H]3CCCCc4c3cccc4[N+](=O)[O-])CC2)cc1Oc1cnc2[nH]ccc2c1 : provide IC50
// result < 20 nM

// query Item NCCN1CCC2(CC1)CC(CNc1ccc(S(=O)(=O)NC(=O)c3ccc(N4CCN([C@@H]5CCCCc6c(Cl)cccc65)CC4)cc3)cc1[N+](=O)[O-])C2 : provide IC50
// result 20 to 200 nM

// query Item O=C(NS(=O)(=O)c1cccc([N+](=O)[O-])c1)c1ccc(N2CCN(C3CCCc4cccc(-c5ccc(Cl)cc5)c43)CC2)cc1Oc1cnc2[nH]ccc2c1 (centres unmarked) : provide IC50
// result 20 to 200 nM

// query Item O=C(NS(=O)(=O)c1ccc(NCC2CCOCC2)c([N+](=O)[O-])c1)c1ccc(N2CCN(C3CCCCc4c(-c5ccccc5)cccc43)CC2)cc1Oc1cnc2[nH]ccc2c1 (centres unmarked) : provide IC50
// result < 20 nM

// query Item CP(C)(=O)c1cccc2c1CCCCC2N1CCN(c2ccc(C(=O)NS(=O)(=O)c3ccc(NCC4CCOCC4)c([N+](=O)[O-])c3)c(Oc3cnc4[nH]ccc4c3)c2)CC1 (centres unmarked) : provide IC50
// result 20 to 200 nM

// query Item O=C(NS(=O)(=O)c1ccc(NCCN2CC3CC2CO3)c([N+](=O)[O-])c1)c1ccc(N2CCN(C3CCCCc4c(Cl)cccc43)CC2)cc1Oc1cnc2[nH]ccc2c1 (centres unmarked) : provide IC50
// result < 20 nM

// query Item CC(=O)N1CCC2(CC1)CC(CNc1ccc(S(=O)(=O)NC(=O)c3ccc(N4CCN([C@@H]5CCCCc6c(Cl)cccc65)CC4)cc3)cc1[N+](=O)[O-])C2 : provide IC50
// result 200 to 2000 nM
